Provide the reported log10 IC50 of each item.
- Test system: HK-2 cells
- assay-protocol: cells
- Format: cell-based, human
- condition-parameters: Homo sapiens, HK-2, read-out: Activity IC50 (μM), HK-2 cells; Table 4
Scale: log10; quantity: IC50; unit before log: µM

Lab note: need log10 IC50 with HK-2 cells for entry COc1ccnc(C[S+]([O-])c2nc3ccc(OC(F)F)cc3[nH]2)c1OC (stereo not shown) [Compound 11, Pantoprazole] , please look it up.
2.48

Lab note: need log10 IC50 with HK-2 cells for entry C[C@@H]1[C@H](O)[C@@H](C)/C=C/C=C/C=C/C=C/C=C/C=C/C=C/[C@H](O[C@@H]2O[C@H](C)[C@@H](O)[C@H](N)[C@@H]2O)C[C@@H]2O[C@](O)(C[C@@H](O)C[C@@H](O)[C@H](O)CC[C@@H](O)C[C@@H](O)CC(=O)O[C@H]1C)C[C@H](O)[C@H]2C(=O)O [Compound 13, Amphotericin B] , please look it up.
0.57

Lab note: need log10 IC50 with HK-2 cells for entry C=CC[C@@H]1/C=C(\C)C[C@H](C)C[C@H](OC)[C@H]2O[C@@](O)(C(=O)C(=O)N3CCCC[C@H]3C(=O)O[C@H](/C(C)=C/[C@@H]3CC[C@@H](O)[C@H](OC)C3)[C@H](C)[C@@H](O)CC1=O)[C@H](C)C[C@@H]2OC [Compound 9, Tacrolimus] , please look it up.
1.69

Lab note: need log10 IC50 with HK-2 cells for entry C[C@@H](NCCCc1cccc(C(F)(F)F)c1)c1cccc2ccccc12 [Compound 8, Cinacalcet] , please look it up.
1.23

Lab note: need log10 IC50 with HK-2 cells for entry CO[C@@]12[C@H](COC(N)=O)C3=C(C(=O)C(C)=C(N)C3=O)N1C[C@@H]1N[C@@H]12 [Compound 10, Mitomycin C] , please look it up.
0.70

Lab note: need log10 IC50 with HK-2 cells for entry C/C=C(/C)C(=O)O[C@H]1C(C)=C2[C@H]([C@@H]1OC(=O)CCCCCCC)[C@@](C)(OC(C)=O)C[C@H](OC(=O)CCC)[C@@]1(O)[C@H]2OC(=O)[C@@]1(C)O [Compound 1, Thapsigargin] , please look it up.
-0.74

Lab note: need log10 IC50 with HK-2 cells for entry C[C@@H]1Cc2c(Cl)cc(C(=O)N[C@@H](Cc3ccccc3)C(=O)O)c(O)c2C(=O)O1 [Compound 3, Ochratoxin A] , please look it up.
1.66

----------
- Tested on: HK-2 cells
- assay-protocol: cells
- Format: cell-based, human
- condition-parameters: read-out: Activity IC50; HK-2 cells; Table 4
metric: IC50 (µM)
Reply with just the number (in µM).

# lookup: IC50 of N.N.[Cl][Pt][Cl] [Compound 12, Cisplatin]
25.4

----------
- Test system: HK-2 cells
- assay-protocol: cells
- Type: cell-based, human
- condition-parameters: read-out: Bioactivity; HK-2 cells; Table 3
metric: pIC50
Remember the convention: pIC50 equals -log10 of concentration in molar.

# lookup: pIC50 of N.N.[Cl][Pt][Cl] [Compound 12, Cisplatin]
4.59
